Data credit: the supplement of paper PMC12764529

ASSAY_NAME: folding stability dG unfold from chymotrypsin proteolysis; higher = more stable
Quick rule: folding stability dG unfold of at least 2 kcal/mol means True, below that means False.

{"columns": ["SEQUENCE_CODE", "LABEL_VALUE"],
 "data": [
  ["SAGGSLVEKVKAIFAEKGIPVNPITTTPTSFTAKTPTGPFTVELPGNSTVTVSPDGTATVTVPPGLSSAGGS [r8_297_JUSTAS]", "True"],
  ["SAGGSAGGSAGGLDLSVPGLTSVTPVLLEDPRGYVTTVYTTTYPDGTVLTHTTVLPASLLSAGGSAGGSAGG [r7_214_JUSTAS]", "False"],
  ["SAGGSAGGSAPVFTSPEEAEKYAREKLLREKPESHPDLVVNVNVTVTTEPDGTITIEIDYKESAGGSAGGSA [r18_440_JUSTAS]", "False"],
  ["SAPEIVVERFEDGSRRLGFTIPGYEVLEEVDVPANETEKTAVFTLPDRVLVFTFREEGIEPRPVPLDELSAG [r14_403_TrMRF]", "False"],
  ["SAGGGANIEGVEIYRIPDLDKYLVVVPSPAPEGAEITITVRLPNGPFTKTFVAKYRPLPGNRHVFVGSAGGS [r8_195_TrMRF]", "False"],
  ["SAGGSAGGSAILVPSPETAKKIMDELRKKTGAKVKMKPIGTGADGKEYYRIEVVPPDKPLDSAGGSAGGSAG [r3_59_TrMRF]", "False"],
  ["SAGGSAGGSAGGMKIKTITGDPSTGVYTITFPDGKVETIPMTQEEVEALAKENPGIEITLSAGGSAGGSAGG [r7_175_JUSTAS]", "True"]
]}

###

ASSAY_NAME: folding stability dG unfold from trypsin proteolysis; higher = more stable
Quick rule: folding stability dG unfold of at least 2 kcal/mol means true (1), below that means false (0).

{"columns": ["SEQUENCE_CODE", "LABEL_VALUE"],
 "data": [
  ["SAGGSAGGSAGMVLRVRTKDGKVIEIKDLSEELKNMTAEQLAEELKKKFPDLKIEVEEVPSAGGSAGGSAGG [r17_42_TrROS_Hall]", "true (1)"],
  ["SAGGSAGGWIPVEELAKEFGFSPDFIEQLMKNGYKIEYEYHEPGWVRLSVENPDNGKKREITFPSAGGSAGG [r6_969_TrROS]", "false (0)"],
  ["SAGGSAGGSASVVADENKIVVTFPNGKVVELDLSDPKKAKEKLLALKPLDIPPITLELVPPASAGGSAGGSA [r18_68_JUSTAS]", "false (0)"],
  ["SAGGSAGGSAKVYVNPDNNKVAVVLPPPGDSYLVLLFDPETGEVRLIEAPPEEVEELLKKGSAGGSAGGSAG [r3_162_TrMRF]", "false (0)"],
  ["SAGLIKIERTGDKLTITIPLKGAPPGAQVRIMVFTDGKVEEHWIPPGKEVEITIPPDNIHIFIQIYPPDSAG [r5_867_TrROS]", "true (1)"],
  ["SAGGKKNEKKPIEIDGVFFNPETGKLVKIGPAKIIVPKNAKIELEAEVFDPVTGEVKKVKFKFELPAGSAGG [r13_206_TrMRF]", "false (0)"],
  ["SEKVKKELNEAGYPVKDIKFVPEKGYAYITVEVYVPEVDKKVEKEIVIPFPDSATPEQLTEAARKALEADSA [r9_184_TrMRF]", "true (1)"],
  ["SAGGSALKIPSGKKYTVVVKDPNKPVEYVADVIERHPDSILIEVKDPNSSKTKKITVPTNVITIDLSAGGSA [r15_381_JUSTAS]", "false (0)"],
  ["SAGGMPGVRPVVTVTVLVKFPGPDETKTVTITMRPEELAAGVTPEAAARRVAEALGHDIEILEIERKSAGGS [r16_554_JUSTAS]", "false (0)"],
  ["SAGMKPPKIEITIEVVEKDGELYVRVKIKLENGEEIEIVMSLDEVKELLKKLFPEITEIEVEEVRLPPKSAG [r5_25_TrROS_Hall]", "true (1)"],
  ["SKGTFMAMMPLDEIKEIVENFAKQGWNIKIKPKSIQPFPFPHNDEDGEPEPYPMVMVEVEIKIVPPGDPPSA [r9_991_TrROS]", "false (0)"],
  ["SAGGSAGGSAGGENNWMIFIEIKIEWEIKPTPDGKWKWEPEIEIKSIRIMPPNSPAAKDLSAGGSAGGSAGG [r7_889_TrROS]", "true (1)"]
]}

###

ASSAY_NAME: folding stability dG unfold (combined trypsin and chymotrypsin); higher = more stable
Reported folding stability dG unfold is given for each of the following sequences.

{"columns": ["SEQUENCE_CODE", "VALUE_UNITS", "READOUT_QUALIFIER", "folding stability dG unfold"],
 "data": [
  ["SAGGSAGGSAGGLVPPDAVIPTETTAEEPVYVIDPVTGELTPIGPGVVRRKITRRVPRPSAGGSAGGSAGGS [r10_1115_JUSTAS]", "kcal/mol", "=", 0.514],
  ["SAGGSKTIEVEIKVPPGMTPEEVAKKLAEELKKAGIEVKVVKVEYDEEKGTVRITLDDGSEVELKVSAGGSA [r2_242_TrROS_Hall]", "kcal/mol", "=", 1.58],
  ["SAGGSMTLTFRKPDTDVTSEKVTKPPGGPELVDLRITPPDGSGEKRTLTPEELAKEFGLSLEEILESAGGSA [r2_262_JUSTAS]", "kcal/mol", "<", -1],
  ["SAGGWQKVEFMIEIPGGGSLDQAKDEVEEFADYLRKKAGFKDVDVDVQVDPDGWVYVMVEIEVPPNASAGGS [r8_3_TrROS]", "kcal/mol", "=", 1.87],
  ["SAGGMPYTLVGEKTESLGEGNTVVTKTYKPPDGTYTVETTTITTDPENGSTSTTSTTTTIPPNTPEALSAGG [r19_173_JUSTAS]", "kcal/mol", "=", -0.1],
  ["SAGGSAGGSMVEEFETTEFSPPEPLVRVERLKKEIFTFPENSLSYKVTPVEERLVTPEEVAAESAGGSAGGS [r12_374_JUSTAS]", "kcal/mol", "<", -1],
  ["SAGGSISIPVYSPEDVIEAIEFIERYLREKGFPENEEATRIIVERLEDGRYRVIIEYPTRTIIIDDSAGGSA [r2_120_TrMRF]", "kcal/mol", "=", 3.01],
  ["SVEKARERLEKLGFKLVSVDPLEDGSVVLTFEFPDNKVVVLVDEDGNARIVAYNPSDGKFSEATFNLDDLSA [r9_2_TrMRF]", "kcal/mol", "=", 2.7],
  ["SAGGKVKIVKIEIEEVDGKLKIRIVVEVDTPEDLEALKKAGVKKLKVEKRRLPNGRLLVVIEVEVEVKSAGG [r13_506_TrROS_Hall]", "kcal/mol", "=", 3.42],
  ["SAGGSAGGSAGGKKKVKVGNKEVEIVKEEEKEGKLIIKDKKTGKKIEISKEDLKKKKIKLSAGGSAGGSAGG [r7_391_TrROS_Hall]", "kcal/mol", "<", -1],
  ["SAGGSAGGSAGGSAKIDLPFPAEITEIRPRPDGSVEIRLSFPTYTVTAIIPPNGIKIYGSAGGSAGGSAGGS [r4_280_TrMRF]", "kcal/mol", "=", 0.487],
  ["SAMVTARVSDSVLRAYRLPDGYVRLVVFDPKTGEPVVEFVVPEDLITDIVEVGDKAVIHVDVKEEDLKLSAG [r14_755_TrMRF]", "kcal/mol", "=", 1.69],
  ["SAGGSAGGSAGGNWVMIEFNFPPGKKLKIEIPNGRDIQRHRDPDNGTLWFMIPPEAAEDFSAGGSAGGSAGG [r7_155_TrROS]", "kcal/mol", "=", 0.636],
  ["SAGGMNTESSFPITLPDGRKVLKNVKTDPETGEITVTVTSIGDPNVKTTEKVDPENPEKVLETVTKPESAGG [r13_400_JUSTAS]", "kcal/mol", "=", 0.0461]
]}

###

Reported folding stability dG unfold is given for each of the following sequences.
ASSAY_NAME: folding stability dG unfold from trypsin proteolysis; higher = more stable

{"columns": ["SEQUENCE_CODE", "folding stability dG unfold"],
 "data": [
  ["SAGGSAGGSAGGPILKITLELSPEEIEELAKALGLKVKKVEKEKNKDGKLRVTIYIELKSAGGSAGGSAGGS [r10_999_TrROS_Hall]", "2.12 kcal/mol"],
  ["SAGGKKVIVIEGLTEEEILEKIKEEFPEPVEVIIRRPDGYVVKITVDAKTREIKKVEVVKVPPPEKPSAGGS [r8_225_TrROS_Hall]", "1.57 kcal/mol"],
  ["SAGGSAGGSAGGDKKDPGQPRQEVEIEIPVYDPNGKPKGPIEITMPAGQSLDEIADEIFNSAGGSAGGSAGG [r7_110_TrROS]", "0.758 kcal/mol"],
  ["SAGGSAGGSAGGKLPPGDIIPMEFEAEFPVYKRDPEGGDWEPIGPMRIDFTIIIRLPPGSAGGSAGGSAGGS [r10_1115_TrROS]", "2.5 kcal/mol"],
  ["SAGGMTLDELRALLAAGKVTIEPVAPDRWLVTVRGPDGEEFTFEFESLEELLDALRAIPGLEVEVRPVSAGG [r13_600_TrROS_Hall]", "3.29 kcal/mol"],
  ["SAGGSAGGSAGGAVTPETIELPDATITVYTYPEGVVVEVTDPETGQATVISPEEFERLLASAGGSAGGSAGG [r7_372_JUSTAS]", "1.78 kcal/mol"],
  ["SAGGSAGGSAGGKKKVKVGNKEVEIVKEEEKEGKLIIKDKKTGKKIEISKEDLKKKKIKLSAGGSAGGSAGG [r7_391_TrROS_Hall]", "-0.42 kcal/mol"]
]}
